Below is a list of entries, each paired with its recorded hERG current change (%, negative = inhibition) at 1uM value.
system tested: human ether-à-go-go-related gene (hERG) potassium channel (human, UniProt Q12809)
Sequence (Q12809 whole entry, looked up): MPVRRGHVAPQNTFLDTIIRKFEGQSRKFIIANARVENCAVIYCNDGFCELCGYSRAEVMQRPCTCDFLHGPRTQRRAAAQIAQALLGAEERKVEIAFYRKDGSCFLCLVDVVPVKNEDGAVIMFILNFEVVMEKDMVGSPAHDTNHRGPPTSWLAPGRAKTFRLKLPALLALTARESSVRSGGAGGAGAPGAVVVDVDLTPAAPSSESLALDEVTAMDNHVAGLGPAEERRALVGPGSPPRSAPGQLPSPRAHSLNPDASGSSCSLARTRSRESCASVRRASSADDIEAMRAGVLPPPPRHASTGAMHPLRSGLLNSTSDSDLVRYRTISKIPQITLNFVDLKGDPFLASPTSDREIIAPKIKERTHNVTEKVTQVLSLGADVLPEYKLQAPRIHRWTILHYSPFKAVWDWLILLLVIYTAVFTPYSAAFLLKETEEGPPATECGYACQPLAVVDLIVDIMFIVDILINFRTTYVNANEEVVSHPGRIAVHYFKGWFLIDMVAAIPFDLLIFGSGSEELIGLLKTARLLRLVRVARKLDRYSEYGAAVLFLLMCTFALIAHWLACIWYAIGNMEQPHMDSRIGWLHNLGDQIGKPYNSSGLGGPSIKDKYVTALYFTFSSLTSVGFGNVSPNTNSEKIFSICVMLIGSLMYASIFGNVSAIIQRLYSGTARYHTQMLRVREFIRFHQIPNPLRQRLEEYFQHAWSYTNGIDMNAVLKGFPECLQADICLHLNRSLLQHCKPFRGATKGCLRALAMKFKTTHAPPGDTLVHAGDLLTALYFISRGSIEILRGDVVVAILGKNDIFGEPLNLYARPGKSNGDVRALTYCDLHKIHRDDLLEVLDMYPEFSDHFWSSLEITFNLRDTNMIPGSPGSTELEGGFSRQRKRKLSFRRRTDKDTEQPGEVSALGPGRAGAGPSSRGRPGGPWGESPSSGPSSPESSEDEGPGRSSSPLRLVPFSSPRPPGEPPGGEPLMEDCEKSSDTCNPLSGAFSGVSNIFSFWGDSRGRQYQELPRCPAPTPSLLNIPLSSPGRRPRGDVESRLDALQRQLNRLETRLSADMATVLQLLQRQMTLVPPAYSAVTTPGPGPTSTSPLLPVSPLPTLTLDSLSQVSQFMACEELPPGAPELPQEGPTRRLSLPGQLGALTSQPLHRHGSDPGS
protocol details: primary screen, population patch clamp on CHO cells stably expressing hERG; higher = less effect of the substance
The whole screen tested about 310,000 compounds, of which about 2,200 (0.71%) showed an effect of 50% or more. The effect is printed as a negative number. This is one part of a sample in which strong results are shown more often than they occur.
Give the number; % is assumed, so skip it.

# molecule, system tested, readout units, observed value
data = [
    ("O=C(CN1C(=O)/C(=C/c2ccccc2F)Sc2ccccc21)N1CCN(c2ccccn2)CC1", "human ether-à-go-go-related gene (hERG) potassium channel (human, UniProt Q12809)", "%", 12.8),
]

// returns hERG current change (%, negative = inhibition) at 1uM for "COC(=O)c1cc2sc(Cl)cc2n1CC(=O)Nc1ccc(OC)c(OC)c1OC" with human ether-à-go-go-related gene (hERG) potassium channel (human, UniProt Q12809); value = -58.5

With human ether-à-go-go-related gene (hERG) potassium channel (human, UniProt Q12809) as the test system, "Cc1ccc(C(=O)N/C(=C\c2ccc(-c3cccc([N+](=O)[O-])c3)o2)C(=O)NCCCN2CCOCC2)cc1" showed hERG current change (%, negative = inhibition) at 1uM of -74.7

Reading of hERG current change (%, negative = inhibition) at 1uM for "O=C(Nc1c2c(nn1-c1ccc([N+](=O)[O-])cc1)CS(=O)(=O)C2)c1ccco1" with human ether-à-go-go-related gene (hERG) potassium channel (human, UniProt Q12809): -24.1

Sample COc1ccc(/C=N/NC(=O)c2ccccc2[N+](=O)[O-])cc1CN1CCc2cc(OC)c(OC)cc2C1C (stereo not drawn) , system: human ether-à-go-go-related gene (hERG) potassium channel (human, UniProt Q12809). Its hERG current change (%, negative = inhibition) at 1uM is -10.4

// assay human ether-à-go-go-related gene (hERG) potassium channel (human, UniProt Q12809), entry CC1CN(C(=O)C(Sc2ccccc2)c2ccccc2)CC(C)O1 (stereo not drawn) , hERG current change (%, negative = inhibition) at 1uM value = 5.46

Given the molecule "CC(C)Cn1c(CN(C)Cc2ccccc2)nc2c1c(=O)n(C)c(=O)n2C" and test system human ether-à-go-go-related gene (hERG) potassium channel (human, UniProt Q12809), the measured hERG current change (%, negative = inhibition) at 1uM is -6.95
